Target: human H1 receptor (Homo sapiens)
Construct: purchased Euroscreen SA, Brussels, Belgium ES-390-M; host or cells: recombinant CHO-1 cells (membranes)
Sequence (P35367 whole entry): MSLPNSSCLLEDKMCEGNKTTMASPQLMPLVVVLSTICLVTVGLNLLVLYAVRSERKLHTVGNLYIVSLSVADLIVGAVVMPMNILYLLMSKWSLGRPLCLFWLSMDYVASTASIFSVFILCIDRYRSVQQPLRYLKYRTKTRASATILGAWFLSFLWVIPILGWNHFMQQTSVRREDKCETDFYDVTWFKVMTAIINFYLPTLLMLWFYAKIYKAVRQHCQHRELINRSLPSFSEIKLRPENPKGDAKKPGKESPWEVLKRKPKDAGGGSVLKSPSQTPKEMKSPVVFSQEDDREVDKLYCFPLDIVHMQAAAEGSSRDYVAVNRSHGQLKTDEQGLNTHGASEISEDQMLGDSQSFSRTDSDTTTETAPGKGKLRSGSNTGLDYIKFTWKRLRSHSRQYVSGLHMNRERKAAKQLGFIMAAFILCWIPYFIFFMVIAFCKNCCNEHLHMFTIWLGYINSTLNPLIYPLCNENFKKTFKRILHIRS
Assay: Histamine H1 receptor binding, [3H]-pyrilamine displacement
Details: 1 nM [3H]-pyrilamine; membranes of recombinant CHO-1 cells expressing human H1 receptor; read-out: H1 antagonism pKi (converted)
QUANTITY_NAME: Ki (µM)

Past entries and their recorded results:
COMPOUND: Cc1c(Cl)ccc(OC2CCN(CC3CN(C(C(=O)O)c4ccccc4)CCO3)CC2)c1Cl (single isomer, unassigned) [Example 12]
ENDPOINT_UNIT: µM
Ki: 0.0316
//
COMPOUND: Cc1cc(Cl)ccc1OC1CCN(CC2CN(C(C(=O)O)c3ccccc3)CCO2)CC1 (single isomer, unassigned) [Example 7]
ENDPOINT_UNIT: µM
Ki: 0.631
//
COMPOUND: O=C(O)c1ccccc1N1CCO[C@H](CN2CCC(Oc3ccc(Cl)c(Cl)c3)CC2)C1
ENDPOINT_UNIT: µM
Ki: 0.0251
//
COMPOUND: Cc1c(Cl)ccc(OC2CCN(CC3CN(C(C(=O)O)c4ccccc4)CCO3)CC2)c1Cl (single isomer, unassigned) [Example 10]
ENDPOINT_UNIT: µM
Ki: 0.794
//
COMPOUND: Cc1c(Cl)ccc(OC2CCN(CC3CN(C(C(=O)O)c4ccccc4)CCO3)CC2)c1Cl (single isomer, unassigned) [Example 11]
ENDPOINT_UNIT: µM
Ki: 0.251
//
COMPOUND: Cc1cc(Cl)ccc1OC1CCN(CC2CN(C(C(=O)O)c3ccccc3)CCO2)CC1 (single isomer, unassigned) [Example 8]
ENDPOINT_UNIT: µM
Ki: 0.126

a = O=C(O)c1ccccc1CN1CCO[C@H](CN2CCC(Oc3ccc(Cl)c(Cl)c3)CC2)C1
b = Cc1c(Cl)ccc(OC2CCN(CC3CN(C(C(=O)O)c4ccccc4)CCO3)CC2)c1Cl (single isomer, unassigned) [Example 9]
Input: From the recorded data, which exceeds the other in Ki: a or b ? # answer = label of selected item
Output: b
